ASSAYED TARGET: T1, Myo5, Q04439
T1 sequence (Q04439 1072-1160, looked up): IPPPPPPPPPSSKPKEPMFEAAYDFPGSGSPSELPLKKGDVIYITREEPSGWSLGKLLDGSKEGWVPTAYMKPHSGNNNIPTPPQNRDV
TEST DESCRIPTION: SPOT array
EXPERIMENTAL PARAMETERS: median of control spots 471
MEASUREMENT KIND: SPOT intensity
Lab note: jot the number down without any unit.

Field: example entries. Status: answers known.
NPLPKEPRLPKRKVA	0
RFKRHRLEFPFNESE	0
AATTSTPPLPRRRAT	0

With those in mind, consider the next binder.
Lab note: NLPKRKPPKLQGPFS gave SPOT intensity of 3
